target: HDAC2 (Homo sapiens (Human), UniProt Q92769); test: HDAC enzyme assay, HDAC2; assay type: biochemical; conditions: 24 hours pre-incubation with enzyme; read-out: IC50 (nM) HDAC2
Sequence (Q92769 whole entry): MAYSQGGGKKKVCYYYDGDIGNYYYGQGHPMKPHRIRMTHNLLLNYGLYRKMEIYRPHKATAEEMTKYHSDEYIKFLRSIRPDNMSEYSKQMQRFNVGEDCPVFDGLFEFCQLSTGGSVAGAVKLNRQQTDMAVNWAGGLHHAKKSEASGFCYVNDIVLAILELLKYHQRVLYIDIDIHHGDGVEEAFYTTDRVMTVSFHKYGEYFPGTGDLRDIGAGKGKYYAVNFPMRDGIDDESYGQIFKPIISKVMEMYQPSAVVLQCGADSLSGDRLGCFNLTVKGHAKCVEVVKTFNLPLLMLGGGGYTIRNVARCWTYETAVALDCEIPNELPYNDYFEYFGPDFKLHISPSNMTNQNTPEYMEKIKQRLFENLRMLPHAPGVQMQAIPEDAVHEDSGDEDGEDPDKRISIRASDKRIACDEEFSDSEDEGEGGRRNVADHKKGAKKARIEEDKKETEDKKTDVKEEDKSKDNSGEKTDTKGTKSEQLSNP
readout kind: IC50 (nM)

Known IC50 results, listed for orientation:
>  <compound>
Nc1ccc(-c2ccccc2)cc1NC(=O)c1cnc(NC2CCNc3ccccc32)nc1 (stereo not shown)

>  <IC50 / nM>
319

$$$$
>  <compound>
Nc1ccc(-c2cccs2)cc1NC(=O)c1ccc(NC2CCN(C(=O)C3(O)CCCCC3)CC2)cc1

>  <IC50 / nM>
26

$$$$

1. Nc1ccc(-c2cccs2)cc1NC(=O)c1ccc(NC2CCN(C(=O)N3CCCC3)CC2)cc1
2. CC1(Nc2ncc(C(=O)Nc3cc(-c4cccs4)ccc3N)cn2)CCN(C(=O)N2CCOCC2)CC1
stdin: Hi team, can someone confirm which has the larger IC50: 1 or 2 ? Thanks. Respond using the label that marks the chosen record.
stdout: 2
